Would you mind telling me the reported kon of each entry?
measuredOn: human IL-6 (human, UniProt P05231 30-212)
Sequence (P05231 30-212 limits assumed): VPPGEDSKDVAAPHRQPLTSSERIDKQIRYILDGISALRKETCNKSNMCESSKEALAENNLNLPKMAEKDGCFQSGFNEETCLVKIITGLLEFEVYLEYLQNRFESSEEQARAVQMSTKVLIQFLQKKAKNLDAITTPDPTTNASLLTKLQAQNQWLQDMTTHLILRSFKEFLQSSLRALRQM
assayOverview: SPR Biacore, supernatant, Protein A capture, 37 C
Protocol: Those four positions were selected based on their tolerance for mutations as observed in bacterial and mammalian screens. […] These cultures were centrifuged and supernatants containing secreted antibodies were harvested and diluted in HBS-EP+ running buffer (1:20 ratio). Antibodies were captured on a Protein A chip (GE) by injecting 1:20 cell supernatant dilutions at 10 μL/min for 60 seconds. […]
Answers are plain numbers, in M⁻¹ s⁻¹.

Take a look at these entries with their results.
- binder: "Anti-IL-6 antibody, heavy chain S35H, G66D, L100K / light chain WT (antibody, IgG1, V domains shown, IgG1; variable domains only) VH: EVQLVESGGGLVQPGGSLRLSCAASGFTFSPFAMHWVRQAPGKGLEWVAKISPGGSWTYYSDTVTDRFTFSLDTSKSTAYLQMNSLRAEDTAVYYCARQKWGYYALDIWGQGTLVTVSS VL: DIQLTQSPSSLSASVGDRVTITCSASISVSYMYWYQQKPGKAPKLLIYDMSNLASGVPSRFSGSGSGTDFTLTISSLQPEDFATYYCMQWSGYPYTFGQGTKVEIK"
  unitAnnotation: "M⁻¹ s⁻¹"
  quantitativeResult: "5.88e+06"
- binder: "Anti-IL-6 antibody, heavy chain S35H, G66D, Q99T / light chain WT (antibody, IgG1, V domains shown, IgG1; variable domains only) VH: EVQLVESGGGLVQPGGSLRLSCAASGFTFSPFAMHWVRQAPGKGLEWVAKISPGGSWTYYSDTVTDRFTFSLDTSKSTAYLQMNSLRAEDTAVYYCARTLWGYYALDIWGQGTLVTVSS VL: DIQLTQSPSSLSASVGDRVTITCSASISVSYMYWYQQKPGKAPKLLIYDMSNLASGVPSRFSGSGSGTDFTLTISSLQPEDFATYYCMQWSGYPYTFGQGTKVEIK"
  unitAnnotation: "M⁻¹ s⁻¹"
  quantitativeResult: "1.69e+06"

Now consider a different binder.
Item Anti-IL-6 antibody, heavy chain S35H, G66D, L100Y / light chain M32L, M50D, N52S, M88Q (antibody, IgG1, V domains shown, IgG1; variable domains only; VL is variant III) VH: EVQLVESGGGLVQPGGSLRLSCAASGFTFSPFAMHWVRQAPGKGLEWVAKISPGGSWTYYSDTVTDRFTFSLDTSKSTAYLQMNSLRAEDTAVYYCARQYWGYYALDIWGQGTLVTVSS VL: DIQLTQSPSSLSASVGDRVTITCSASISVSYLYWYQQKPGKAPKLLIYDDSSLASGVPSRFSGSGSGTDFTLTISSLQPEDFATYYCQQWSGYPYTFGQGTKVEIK : provide kon
858000
